Kindly supply the reported internalization values for the records listed here.
Test system: LNCaP cells
Test Description: Internalization into LNCaP cells, relative to ([125I]I-BA)KuE
Format: cell-based
Condition Context: mean ± SD as quoted in the discussion

Recorded internalization, per entry:
CC(C)(C)[Si](F)(c1ccc(C(=O)NC[C@H](NC(=O)CC[C@@H](C(=O)O)N2CCN(CC(=O)O)CCN(CC(=O)O)CCN(CC(=O)O)CC2)C(=O)N[C@H](CCCCNC(=O)CCC(=O)NCCC[C@@H](NC(=O)CC[C@H](NC(=O)N[C@@H](CCC(=O)O)C(=O)O)C(=O)O)C(=O)O)C(=O)O)cc1)C(C)(C)C [rhPSMA7.4, [^19F][^natGa]L-Dap-S-DOTAGA-rhPSMA7, metal not drawn] | 207.33±4.06%
CC(C)(C)[Si](F)(c1ccc(C(=O)NC[C@@H](NC(=O)CC[C@@H](C(=O)O)N2CCN(CC(=O)O)CCN(CC(=O)O)CCN(CC(=O)O)CC2)C(=O)N[C@H](CCCCNC(=O)CCC(=O)NCCC[C@@H](NC(=O)CC[C@H](NC(=O)N[C@@H](CCC(=O)O)C(=O)O)C(=O)O)C(=O)O)C(=O)O)cc1)C(C)(C)C [rhPSMA7.3, [^19F][^natGa]D-Dap-S-DOTAGA-rhPSMA7, metal not drawn] | 161.41%±8.88
CC(C)(C)[Si](F)(c1ccc(C(=O)NC[C@H](NC(=O)CC[C@H](C(=O)O)N2CCN(CC(=O)O)CCN(CC(=O)O)CCN(CC(=O)O)CC2)C(=O)N[C@H](CCCCNC(=O)CCC(=O)NCCC[C@@H](NC(=O)CC[C@H](NC(=O)N[C@@H](CCC(=O)O)C(=O)O)C(=O)O)C(=O)O)C(=O)O)cc1)C(C)(C)C [rhPSMA7.2, [^19F][^natGa]L-Dap-R-DOTAGA-rhPSMA7, metal not drawn] | 191.83%±15.54

# evaluate next
Entry CC(C)(C)[Si](F)(c1ccc(C(=O)NC[C@@H](NC(=O)CC[C@H](C(=O)O)N2CCN(CC(=O)O)CCN(CC(=O)O)CCN(CC(=O)O)CC2)C(=O)N[C@H](CCCCNC(=O)CCC(=O)NCCC[C@@H](NC(=O)CC[C@H](NC(=O)N[C@@H](CCC(=O)O)C(=O)O)C(=O)O)C(=O)O)C(=O)O)cc1)C(C)(C)C [rhPSMA7.1, [^19F][^natGa]D-Dap-R-DOTAGA-rhPSMA7, metal not drawn] , internalization reported as 69.55%±5.29
